Source: the kinase profiling compilation of Christmann-Franck et al. (2016)

Listed here: items and their measured residual activity.
# Test Target: AKT3 (human) (UniProt Q9Y243)
# Sequence (Q9Y243 whole entry, looked up): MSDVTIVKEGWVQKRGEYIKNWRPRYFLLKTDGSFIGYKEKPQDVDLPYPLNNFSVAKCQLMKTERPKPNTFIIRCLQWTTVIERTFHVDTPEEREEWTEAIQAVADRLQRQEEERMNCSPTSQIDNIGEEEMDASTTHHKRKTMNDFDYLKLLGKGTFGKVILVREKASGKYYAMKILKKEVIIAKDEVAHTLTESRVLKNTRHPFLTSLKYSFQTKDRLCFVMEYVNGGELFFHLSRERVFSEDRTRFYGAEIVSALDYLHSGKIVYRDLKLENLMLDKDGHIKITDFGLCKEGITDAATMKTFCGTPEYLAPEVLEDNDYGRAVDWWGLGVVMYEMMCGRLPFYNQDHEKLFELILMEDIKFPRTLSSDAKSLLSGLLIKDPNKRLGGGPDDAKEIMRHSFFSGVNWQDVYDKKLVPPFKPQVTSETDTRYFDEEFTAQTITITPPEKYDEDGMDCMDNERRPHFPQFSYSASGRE
# Test Details: radiometric filter-binding kinase assay, Kinase HotSpot
# Cond: compound 0.5 µM; ATP 10 µM
Report the figure in % without appending any unit label.

Problem: What value of measured residual activity is listed for COc1ccc2c(c1)c(C1=C(c3c[nH]c4ccccc34)C(=O)NC1=O)cn2CCCN(C)C ?
Result: 63.7

Problem: What value of measured residual activity is listed for O=C1Nc2ccc(Br)cc2/C1=C\c1cc2c([nH]1)CCCC2 ?
Result: 96.6

Problem: What value of measured residual activity is listed for Cc1nc(-c2ccccc2)c(-c2ccncc2)o1 ?
Result: 106

Problem: What value of measured residual activity is listed for Cc1cccc(-c2nc(C(C)(C)C)[nH]c2-c2ccc3c(c2)OCO3)n1 ?
Result: 94.7

Problem: What value of measured residual activity is listed for O=C1NC(=O)c2c1c1c3ccccc3[nH]c1n1cncc21 ?
Result: 94.3

Problem: What value of measured residual activity is listed for O=C(c1cc2cc(O)ccc2[nH]1)c1cc2cc(O)ccc2[nH]1 ?
Result: 102

Problem: What value of measured residual activity is listed for COc1cc2ncnc(Nc3ccc(OCc4ccccc4)cc3)c2cc1OC ?
Result: 103

Problem: What value of measured residual activity is listed for CN(C)c1ccc(/C=C2\C(=O)Nc3ccccc32)cc1 ?
Result: 103

Problem: What value of measured residual activity is listed for COc1ccc(C(=O)Nc2sc3c(c2C(N)=O)CCCC3)cc1OC ?
Result: 102

Problem: What value of measured residual activity is listed for CO[C@@H]1[C@H](N(C)C(=O)c2ccccc2)C[C@H]2O[C@]1(C)n1c3ccccc3c3c4c(c5c6ccccc6n2c5c31)C(=O)NC4 ?
Result: 55.1

Problem: What value of measured residual activity is listed for Cn1c2ccccc2c2c3c(c4c5ccccc5n(CCC#N)c4c21)CNC3=O ?
Result: 85.3

Problem: What value of measured residual activity is listed for CN(C)S(=O)(=O)c1ccc2c(c1)/C(=C/c1cc3c([nH]1)CCCC3)C(=O)N2 ?
Result: 96.7
